Origin of values: a melting point compilation (Tetko et al.; mined from patent text by program, amines drawn as free bases though some values may be those of a salt)

Quantity: melting point

CCC(O)(CC(N)=O)c1ccc(Br)cc1 (configuration not stated) ... 118 to 119 °C
CCCCCNC(=O)[C@H](Cc1ccc(OCC(=O)O)c(-c2nn[nH]n2)c1)NC(=O)[C@H](Cc1ccccc1)NC(=O)OC(C)(C)C ... 121 to 123 °C
ON=Cc1ccc2c(c1)COC2c1ccc(F)cc1 (configuration not stated) ... 158 to 159 °C
O=C(CCl)Nc1ccncc1O ... 155 to 158 °C
CC(=O)N(C)c1cccc(-c2ccnc3c(C(=O)c4ccco4)cnn23)c1 ... 210 to 212 °C

In the following, a different compound is considered.
Query: I would be grateful if you could share the reported melting point for c1ccc(CSc2nc(SCc3ccccc3)n(-c3ncccn3)n2)cc1 .
Result: 86 to 88 °C

----------
# melting point per record follows

Here is how some molecules turned out for melting point.
COc1ccc(Cn2cnc3c(-c4ccco4)nc(C(F)(F)F)nc32)cc1 ... 149 to 150 °C
CC(C)(C)OC(=O)NCCC[C@H](NC(=O)OC(C)(C)C)C(=O)OC(C)(C)C ... 80 to 82 °C
CCNC(=O)Oc1cccc(CCNC(=O)/C=C/c2cccnc2)c1 ... 130 °C
CCn1nc2c(N)nc3ccccc3c2c1CC1(O)CCN(S(C)(=O)=O)CC1 ... 268 to 270 °C
Clc1ccccc1-c1nc(-c2ccccc2)c(-c2ccccc2)[nH]1 ... 196 to 197 °C

Query: I would be grateful if you could share the reported melting point for O=C(C=Cc1ccc(C(F)(F)F)cc1)N1CCOCC1 .
Result: 142 to 144 °C

Query: I would be grateful if you could share the reported melting point for CCOC(=O)n1c(=S)[nH]c2ccc(Br)cc2c1=O .
Result: 214 °C

Query: I would be grateful if you could share the reported melting point for CCn1cc(C(=O)O)c(=O)c2cc3cc(F)c(N4CCNC(c5cccc(F)c5)C4)cc3nc21 (racemic) .
Result: 284 °C

Query: I would be grateful if you could share the reported melting point for Cc1cc(Oc2ccc(Oc3ccc(N)c(C)c3)cc2)ccc1N .
Result: 150 to 151 °C

Query: I would be grateful if you could share the reported melting point for CCOC(=O)c1cnc2n(c1=O)C(C)CCC2=NNC(=O)c1ccccc1 (stereo not given) .
Result: 209 to 210 °C

Query: I would be grateful if you could share the reported melting point for CN1CCCC1CCNc1nccc(Oc2ccc(NC(=O)c3cc(F)cc(N4CCCCC4)c3)c3ccccc23)n1 (stereo not given) .
Result: 112 to 114 °C

Query: I would be grateful if you could share the reported melting point for CCCC1(CC(=O)O)OCC(=O)c2c1[nH]c1ccccc21 (stereo not given) .
Result: 206 to 208 °C

Query: I would be grateful if you could share the reported melting point for COc1ccc(-c2[nH]nc3c2CCc2ccccc2-3)cc1 .
Result: 161 to 163 °C

Query: I would be grateful if you could share the reported melting point for O=C1Nc2cc(Cl)ccc2Oc2ccccc21 .
Result: 250 to 255 °C

Query: I would be grateful if you could share the reported melting point for NCC(=O)Nc1ccc(S(=O)(=O)c2cccc(Cl)c2)cc1 .
Result: 195 to 196 °C

----------
# melting point per record follows

Here is how some molecules turned out for melting point.
O=C(O)CCc1cc2cc(Cl)ccc2n1S(=O)(=O)c1cccc2ccccc12 ... 165 to 175 °C
CN(C)C(=O)c1cc(-c2ccccc2)c(=O)[nH]c1-c1c(Cl)cccc1C#N ... 264 to 267 °C
O=C1Nc2cccc(F)c2C12COc1cc3c(cc12)OCCO3 (configuration not stated) ... 282 to 285 °C
CC(C)c1ccc(N(C)C)c(C(C)C)c1NC(=O)CN1CCN(CCSc2nc3ccccc3o2)CC1 ... 159 to 161 °C
Cc1c(SCCCSc2ccc3ncc([N+](=O)[O-])n3n2)ccnc1C(S)c1nc2cc(S(C)(=O)=O)ccc2[nH]1 (configuration not stated) ... 155 to 156 °C

Query: I would be grateful if you could share the reported melting point for COc1ccc(C(NCCCc2ccccc2)c2cccc(Nc3c(N)c(=O)c3=O)c2)cc1 (configuration not stated) .
Result: 178 to 180 °C

Query: I would be grateful if you could share the reported melting point for COc1cc(NC(=O)OC(C)(C)C)c(NC(=O)CC(=O)c2cccc(C#N)c2)cc1C#Cc1ccccc1 .
Result: 169 °C

----------
# melting point per record follows

Here is how some compounds turned out for melting point.
COC(=O)c1c(-c2cc(OC)c(OC)c(OC)c2)c2cc(OC)c(OCc3cccs3)cc2c(=O)n1-c1ccc(N)cc1 ... 205 to 206 °C
N#Cc1cc(C(=O)NNC(=O)c2occc2-c2cccc(Oc3ccccc3)c2)ccc1O ... 227 to 228 °C
NC(=O)c1cnc2c(N)cccc2c1 ... 164 to 165 °C

Query: I would be grateful if you could share the reported melting point for OCC1C(O)C(O)C(O)CN1C=CCc1cccc(OCCOc2cccc(CC=CN3CC(O)C(O)C(O)C3CO)c2)c1 (centres undefined) .
Result: 210 to 213 °C

----------
# melting point per record follows

Here is how some compounds turned out for melting point.
CN1CCN(C2c3ccccc3-c3[nH]c(=O)c(=O)[nH]c32)CC1 (stereo not given) ... 263 to 265 °C
CN(CC(=O)Nc1ccc(Cl)cc1)C(=O)OC(C)(C)C ... 126 to 128 °C
COc1cc2c(cc1OC)-c1ccc(OC)c(OC)c1C2=O ... 208 to 209 °C
Cc1cc(-c2ccccc2)nc2c1ccn2-c1ccc(C(C)C)cc1Br ... 95.8 °C
CCOP(=O)(CC(=O)Nc1c(C(C)C)cccc1C(C)C)OCC ... 119 to 120 °C

Query: I would be grateful if you could share the reported melting point for COCC(O)COc1cccc2c1CCNC2=O (stereo not given) .
Result: 119 to 123 °C

Query: I would be grateful if you could share the reported melting point for CN(C(=O)C1CCC1)c1cccc(-c2ccnc3c(C(=O)c4ccco4)cnn23)c1 .
Result: 166 to 167 °C

Query: I would be grateful if you could share the reported melting point for Cc1c(-c2ccc(O)cc2)sc(C=O)c1-c1cccc(O)c1 .
Result: 208 to 210 °C

Query: I would be grateful if you could share the reported melting point for CS(=O)(=O)c1ccc2ccn(C3CCN(CCc4ccc(F)cc4)CC3)c2c1 .
Result: 133 to 135 °C

Query: I would be grateful if you could share the reported melting point for Nc1nc2c(c3[nH]cnc13)CCCC2 .
Result: > 300 °C

----------
# melting point per record follows

Here is how some compounds turned out for melting point.
C=C1CC(COc2cccc3ccc(C)nc23)(c2ccc(Cl)cc2)OC1=O (centres undefined) ... 129 to 130 °C
CN(C)C1CCC2(CC1)Nc1cc(Cl)c(S(N)(=O)=O)cc1S(=O)(=O)N2 (centres undefined) ... 255 °C
CCc1nc2c(N)nc(C)c(C)c2n1CCOCCNC(=O)NS(=O)(=O)c1ccccc1 ... 201 to 203 °C

In the following, a different compound is considered.
Query: I would be grateful if you could share the reported melting point for CNc1ccc(CO)cc1[N+](=O)[O-] .
Result: 126 to 127 °C

----------
# melting point per record follows

Here is how some compounds turned out for melting point.
O=[N+]([O-])c1ccc(N2CC(O)C2)c(F)c1 ... 130 to 132 °C
O=C(O)CCCC#CCc1c(-c2ccccc2)nc(-c2ccccc2)n1-c1ccccc1 ... 144 to 145 °C
Nc1ncnc2c1c(-c1ccc(Oc3ccccc3)cc1)cn2C1CCNC1 (configuration not stated) ... 182 to 184 °C

Query: I would be grateful if you could share the reported melting point for O=C(Nc1ccc(N2CCOCC2)c(C(F)(F)F)c1)c1ccc(F)c(OCc2cnc3ccccc3c2)c1 .
Result: 81 to 84 °C

Query: I would be grateful if you could share the reported melting point for COc1cc(COc2nn(Cc3ccccc3)cc2C(C)=O)ccc1OCc1nc(-c2ccco2)oc1C .
Result: 144 to 145 °C

Query: I would be grateful if you could share the reported melting point for CCNC(=O)c1ccc(N2CCN(Cc3cnc4c(c3)[nH]c(=O)n3cccc43)CC2)c(Cl)c1 .
Result: 266 to 271 °C

Query: I would be grateful if you could share the reported melting point for O=C1NC(=O)C(Cc2ccc(OCC3CN(c4ccccn4)CCO3)cc2)S1 (configuration not stated) .
Result: 139 to 142 °C

Query: I would be grateful if you could share the reported melting point for CCCCOC(=O)CNC(=O)c1nc2ccc(Cl)cc2cc1OCc1ccccc1 .
Result: 121 to 123 °C

Query: I would be grateful if you could share the reported melting point for O=C(C=Cc1cccc(Br)c1)c1ccc(OC2CCCCO2)cc1 (configuration not stated) .
Result: 166 to 168 °C
